FYI, the data here is from the supplement of paper PMC11061612.

system: TT (Thyroid Gland Carcinoma); test: Bliss excess, mean over the matrix (fraction); higher = more synergy;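 note: after 72 h of two-drug dosing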

- compound: "Cc1c2c(nn1C)CSCc1cc(n(C)n1)CSc1cc(c3ccccc3c1)OCCCc1c(C(=O)O)n(C)c3c-2c(Cl)ccc13 [AZD5991] + Cc1cc2ncnn2cc1Nc1ncc2c(n1)n(C1CCOCC1)c(=O)n2C [AZD7648] (first compound max 1 µM, 7x7, partner max 10 µM)"
  assayedSystem: "TT (Thyroid Gland Carcinoma)"
  Bliss excess: -0.0112
- compound: "Cc1c2c(nn1C)CSCc1cc(n(C)n1)CSc1cc(c3ccccc3c1)OCCCc1c(C(=O)O)n(C)c3c-2c(Cl)ccc13 [AZD5991] + Cn1cnc2c(F)c(Nc3ccc(Br)cc3Cl)c(C(=O)NOCCO)cc21 [Selumetinib] (first compound max 1 µM, 7x7, partner max 3 µM)"
  assayedSystem: "TT (Thyroid Gland Carcinoma)"
  Bliss excess: -0.0526
- compound: "CS(=O)(=O)CCNCc1ccc(-c2ccc3ncnc(Nc4ccc(OCc5cccc(F)c5)c(Cl)c4)c3c2)o1 [Lapatinib] + NC1(c2ccc(-c3nc4ccn5c(=O)[nH]nc5c4cc3-c3ccccc3)cc2)CCC1 [MK-2206] (first compound max 10 µM, 7x7, partner max 10 µM)"
  assayedSystem: "TT (Thyroid Gland Carcinoma)"
  Bliss excess: -0.0043
- compound: "Cc1c2c(nn1C)CSCc1cc(n(C)n1)CSc1cc(c3ccccc3c1)OCCCc1c(C(=O)O)n(C)c3c-2c(Cl)ccc13 [AZD5991] + C=CCn1c(=O)c2cnc(Nc3ccc(N4CCN(C)CC4)cc3)nc2n1-c1cccc(C(C)(C)O)n1 [AZD1775] (first compound max 1 µM, partner max 1 µM)"
  assayedSystem: "TT (Thyroid Gland Carcinoma)"
  Bliss excess: 0.007

----------
test system: IGR-37 (Melanoma); assay: Bliss excess, mean over the matrix (fraction); higher = more synergy
# if value of Bliss excess reaches 0.001, tag 1; if it stays below, tag 0

- compound: "CCc1c2c(nc3ccc(O)cc13)-c1cc3c(c(=O)n1C2)COC(=O)[C@]3(O)CC [SN-38] + O=C(c1cc(Cc2n[nH]c(=O)c3ccccc23)ccc1F)N1CCN(C(=O)C2CC2)CC1 [Olaparib] (first compound max 0.3 µM, 7x7, partner max 10 µM)"
  category: 1
- compound: "Cc1cc2ncnn2cc1Nc1ncc2c(n1)n(C1CCOCC1)c(=O)n2C [AZD7648] + CCN(CCO)CCCOc1ccc2c(Nc3cc(CC(=O)Nc4cccc(F)c4)[nH]n3)ncnc2c1 [AZD2811] (first compound max 10 µM, 7x7, partner max 1 µM)"
  category: 1
- compound: "CC1(C)CCC(CN2CCN(c3ccc(C(=O)NS(=O)(=O)c4ccc(NCC5CCOCC5)c([N+](=O)[O-])c4)c(Oc4cnc5[nH]ccc5c4)c3)CC2)=C(c2ccc(Cl)cc2)C1 [Venetoclax] + COc1cc(Nc2ncc3c(n2)-c2ccc(Cl)cc2C(c2c(F)cccc2OC)=NC3)ccc1C(=O)O [Alisertib] (first compound max 1 µM, 7x7, partner max 10 µM)"
  category: 0
- compound: "Cn1cnc2c(F)c(Nc3ccc(Br)cc3Cl)c(C(=O)NOCCO)cc21 [Selumetinib] + CCN(CCO)CCCOc1ccc2c(Nc3cc(CC(=O)Nc4cccc(F)c4)[nH]n3)ncnc2c1 [AZD2811] (first compound max 10 µM, 7x7, partner max 1 µM)"
  category: 0
- compound: "CC1(C)CCC(CN2CCN(c3ccc(C(=O)NS(=O)(=O)c4ccc(NCC5CCOCC5)c([N+](=O)[O-])c4)c(Oc4cnc5[nH]ccc5c4)c3)CC2)=C(c2ccc(Cl)cc2)C1 [Venetoclax] + Cc1cc2ncnn2cc1Nc1ncc2c(n1)n(C1CCOCC1)c(=O)n2C [AZD7648] (first compound max 1 µM, 7x7, partner max 10 µM)"
  category: 1
- compound: "CN(CCO)CC[C@H](CSc1ccccc1)Nc1ccc(S(=O)(=O)NC(=O)c2ccc(N3CCC([C@@H](O)c4ccccc4-c4ccc(Cl)cc4)CC3)cc2)cc1S(=O)(=O)C(F)(F)F [AZD4320] + CS(=O)(=O)CCNCc1ccc(-c2ccc3ncnc(Nc4ccc(OCc5cccc(F)c5)c(Cl)c4)c3c2)o1 [Lapatinib] (first compound max 1 µM, 7x7, partner max 10 µM)"
  category: 0
- compound: "NC1(C(=O)N[C@@H](CCO)c2ccc(Cl)cc2)CCN(c2ncnc3[nH]ccc23)CC1 [Capivasertib] + COc1nnc2ccc(N3CCC(c4ccc(OCCN5CCN(C)C(=O)[C@H]5C)cc4)CC3)nn12 [AZD5153] (first compound max 10 µM, 7x7, partner max 1 µM)"
  category: 1
